Test system: Spodoptera littoralis
Measurement Protocol: Contact mortality (Leaf Disc Method)
Condition Label: Table 3; application dose 3 cc/l (0.3%); Abbott's corrected; 24 h
Marks after values point to notes of the source that are not given here.
Attribute Measured: Contact mortality (%M) Spodoptera littoralis

Dear colleague, I am looking for the recorded Contact mortality (%M) Spodoptera littoralis of the following molecule: CCO [Ethanol (EtOH), Ethanol]
0.0 ± 0.0 ^f %

Need Contact mortality (%M) Spodoptera littoralis, item O
0.0 ± 0.0 ^f %

Bench note: what Contact mortality (%M) Spodoptera littoralis did OCc1ccccc1 show?
17.4 ± 6.2 ^de %

Name the reported Contact mortality (%M) Spodoptera littoralis value associated with the molecule CC(C)O
4.2 ± 6.1 ^f %

---

System: Tuta absoluta
Measurement Protocol: Contact mortality (Leaf Disc Method)
Condition Label: Table 3; application dose 3 cc/l (0.3%); Abbott's corrected; 24 h
Marks after values point to notes of the source that are not given here.
Attribute Measured: Contact mortality (%M) Tuta absoluta

Please review the entries below; each comes with its answer.
O	0.0 ± 0.0 ^e %
CCO [Ethanol (EtOH), Ethanol]	0.0 ± 0.0 ^e %

Requested field: Contact mortality (%M) Tuta absoluta. Item: OCc1ccccc1
29.6 ± 5.7 ^d %

Which Contact mortality (%M) Tuta absoluta is reported for this molecule? CC(C)O
11.4 ± 7.2 ^e %
